Consider the following compounds and their measured viability, T/C readings.
System: NCI-H1341 complex spheroids, percent test/control
Method: Anticancer human tumor NCI-H1341 cell line growth inhibition [AhR];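 note: spheroids exposed to agents for seven days before readout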
Experimental conditions: second compound 1 µM; first compound 0.03 µM; stronger effect = lower value
Description: Multicellular complex tumor spheroid response to aryl hydrocarbon receptor antagonists in combination with a variety of drugs and investigational agents in selected tumor cell lines […] Compounds. […] If the clinical Cmax for an agent had not been determined, the highest concentration tested was 10 microM (Table 1). […]
Experimental endpoint: viability, T/C (%)

>>> meas_value("O=C(C=Cn1cnc(-c2cc(C(F)(F)F)cc(C(F)(F)F)c2)n1)NNc1cnccn1 + Cc1ccccc1N=Nc1ccc(NC(=O)c2ccnn2C)c(C)c1")
66.7
>>> meas_value("CCN(c1cc(-c2ccc(CN3CCOCC3)cc2)cc(C(=O)NCc2c(C)cc(C)[nH]c2=O)c1C)C1CCOCC1 + Cc1cncc(-c2nc(NCCc3c[nH]c4ccccc34)c3ncn(C(C)C)c3n2)c1")
86.7
>>> meas_value("CC(C)CC(NC(=O)C(Cc1ccccc1)NC(=O)c1cnccn1)B(O)O (stereo not drawn) + CC(CO)NC(=O)c1cc(-c2ccc(Cl)cc2)nn(-c2cnn(C)c2)c1=O")
0.09

* * *

Tested on: NCI-H1341 complex spheroids, percent test/control
Method: Anticancer human tumor NCI-H1341 cell line growth inhibition [AhR];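 note: spheroids exposed to agents for seven days before readout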
Experimental conditions: second compound 10 µM; first compound 0.0316 µM; stronger effect = lower value
So basically: is viability, T/C under 40%? Then class 1. Not under? Then class 0.

>>> class_assignment("COc1ccc([C@@H](O)c2cc(-c3ncnc4cc(N5CCOCC5)ccc34)c(F)cc2Cl)nn1 + Cc1ccccc1N=Nc1ccc(NC(=O)c2ccnn2C)c(C)c1")
"class 0"
>>> class_assignment("CC(C)c1c(-c2ccccc2)nc2c(C#N)c[nH]n2c1=O + Cc1cncc(-c2nc(NCCc3c[nH]c4ccccc34)c3ncn(C(C)C)c3n2)c1")
"class 1"
>>> class_assignment("CC1(C)CCC(CN2CCN(c3ccc(C(=O)NS(=O)(=O)c4ccc(NCC5CCOCC5)c([N+](=O)[O-])c4)c(Oc4cnc5[nH]ccc5c4)c3)CC2)=C(c2ccc(Cl)cc2)C1 + Cc1ccccc1N=Nc1ccc(NC(=O)c2ccnn2C)c(C)c1")
"class 0"
>>> class_assignment("CC1COCCN1c1cc(-c2ccnn2C)c2ccnc(-c3ccn[nH]3)c2n1 (stereo not drawn) + Cc1ccccc1N=Nc1ccc(NC(=O)c2ccnn2C)c(C)c1")
"class 0"
>>> class_assignment("COc1cccc2c1C(=O)c1c(O)c3c(c(O)c1C2=O)CC(O)(C(=O)CO)CC3OC1CC(N)C(O)C(C)O1 (stereo not drawn) + CC(CO)NC(=O)c1cc(-c2ccc(Cl)cc2)nn(-c2cnn(C)c2)c1=O")
"class 0"
>>> class_assignment("CC1COCCN1c1cc(-c2ccnn2C)c2ccnc(-c3ccn[nH]3)c2n1 (stereo not drawn) + Cc1cncc(-c2nc(NCCc3c[nH]c4ccccc34)c3ncn(C(C)C)c3n2)c1")
"class 1"
>>> class_assignment("Nc1ncn(C2CC(O)C(CO)O2)c(=O)n1 (stereo not drawn) + Cc1cncc(-c2nc(NCCc3c[nH]c4ccccc34)c3ncn(C(C)C)c3n2)c1")
"class 1"
>>> class_assignment("CC1COCCN1c1cc(C2(S(C)(=N)=O)CC2)nc(-c2ccnc3[nH]ccc23)n1 (stereo not drawn) + Cc1ccccc1N=Nc1ccc(NC(=O)c2ccnn2C)c(C)c1")
"class 0"
>>> class_assignment("COc1cccc2c1C(=O)c1c(O)c3c(c(O)c1C2=O)CC(O)(C(=O)CO)CC3OC1CC(N)C(O)C(C)O1 (stereo not drawn) + Cc1cncc(-c2nc(NCCc3c[nH]c4ccccc34)c3ncn(C(C)C)c3n2)c1")
"class 1"
>>> class_assignment("COc1cc(C2c3cc4c(cc3C(OC3OC5COC(C)OC5C(O)C3O)C3COC(=O)C23)OCO4)cc(OC)c1O (stereo not drawn) + Cc1cncc(-c2nc(NCCc3c[nH]c4ccccc34)c3ncn(C(C)C)c3n2)c1")
"class 1"
>>> class_assignment("Nc1ccccc1NC(=O)c1ccc(CNC(=O)OCc2cccnc2)cc1 + Cc1ccccc1N=Nc1ccc(NC(=O)c2ccnn2C)c(C)c1")
"class 0"
>>> class_assignment("CC(C)c1c(-c2ccccc2)nc2c(C#N)c[nH]n2c1=O + Cc1ccccc1N=Nc1ccc(NC(=O)c2ccnn2C)c(C)c1")
"class 0"
>>> class_assignment("CC[C@@]1(O)C(=O)OCc2c1cc1n(c2=O)Cc2cc3c(CN(C)C)c(O)ccc3nc2-1 + CC(CO)NC(=O)c1cc(-c2ccc(Cl)cc2)nn(-c2cnn(C)c2)c1=O")
"class 0"
>>> class_assignment("CC1(C)CCC(CN2CCN(c3ccc(C(=O)NS(=O)(=O)c4ccc(NCC5CCOCC5)c([N+](=O)[O-])c4)c(Oc4cnc5[nH]ccc5c4)c3)CC2)=C(c2ccc(Cl)cc2)C1 + CC(CO)NC(=O)c1cc(-c2ccc(Cl)cc2)nn(-c2cnn(C)c2)c1=O")
"class 0"
>>> class_assignment("COc1cc(C2c3cc4c(cc3C(OC3OC5COC(C)OC5C(O)C3O)C3COC(=O)C23)OCO4)cc(OC)c1O (stereo not drawn) + Cc1ccccc1N=Nc1ccc(NC(=O)c2ccnn2C)c(C)c1")
"class 0"
>>> class_assignment("CC1COCCN1c1cc(C2(S(C)(=N)=O)CC2)nc(-c2ccnc3[nH]ccc23)n1 (stereo not drawn) + CC(CO)NC(=O)c1cc(-c2ccc(Cl)cc2)nn(-c2cnn(C)c2)c1=O")
"class 0"
>>> class_assignment("NS(=O)(=O)OCC1CC(n2ccc3c(NC4CCc5ccccc54)ncnc32)CC1O (stereo not drawn) + CC(CO)NC(=O)c1cc(-c2ccc(Cl)cc2)nn(-c2cnn(C)c2)c1=O")
"class 1"
>>> class_assignment("Cn1ncnc1C1c2n[nH]c(=O)c3cc(F)cc(c23)NC1c1ccc(F)cc1 (stereo not drawn) + Cc1ccccc1N=Nc1ccc(NC(=O)c2ccnn2C)c(C)c1")
"class 0"
>>> class_assignment("O=C(c1cc(Cc2n[nH]c(=O)c3ccccc23)ccc1F)N1CCN(C(=O)C2CC2)CC1 + Cc1cncc(-c2nc(NCCc3c[nH]c4ccccc34)c3ncn(C(C)C)c3n2)c1")
"class 1"
>>> class_assignment("O=C(C=Cc1cccc(S(=O)(=O)Nc2ccccc2)c1)NO + Cc1ccccc1N=Nc1ccc(NC(=O)c2ccnn2C)c(C)c1")
"class 0"
>>> class_assignment("Nc1ncn(C2CC(O)C(CO)O2)c(=O)n1 (stereo not drawn) + Cc1ccccc1N=Nc1ccc(NC(=O)c2ccnn2C)c(C)c1")
"class 0"
>>> class_assignment("CC(C)c1c(-c2ccccc2)nc2c(C#N)c[nH]n2c1=O + CC(CO)NC(=O)c1cc(-c2ccc(Cl)cc2)nn(-c2cnn(C)c2)c1=O")
"class 0"
